# method summary: melting temperature; fluorescence melt of hairpins on a sequencing array, two-state fit, raised by 9.35 °C to match UV melts
# condition label: sodium 0.088 M
Answer each item with its documented Tm.
Numbers only, in °C.

Sample answers from the record:
GATCTAGTACTAGATC ((((((....))))))
48.7
GATCTGGTGCAGATC ((((((...))))))
49.5
CGTACGGAAACGTCTACG ((((((....)))..)))
30.7

Could you report Tm for every entry in the following list?
1. GAACGTGGAAACATGTTC ((((.((....)).))))
2. GCGTTGCGAAAGCAGGGC ((..(((....)))..))
3. GAGATGCGAAAGCACCTC (((.(((....))).)))

1: 47.2; 2: 55.7; 3: 49

Could you report Tm for every entry in the following list?
1. GATCCGCAGCGGATC ((((((...))))))
2. GCGCTGCGAAAGCGGGGC ((.(.((....)).).))
3. GATCGTCGCGACGATC ((((((....))))))
4. GCTAGTGGAAACATTAGC ((((.((....)).))))
5. GCGTCGTTACGC ((((....))))

1: 54.8; 2: 67.8; 3: 67.6; 4: 42.7; 5: 52.6

Could you report Tm for every entry in the following list?
1. GTATACCGAAAGGTGTAC (((.(((....))).)))
2. GAGCATGGAAACATGCTC (((((((....)))))))
3. GCACTGCGAAAGCGTTGC (((..((....))..)))

1. 51.6
2. 67.5
3. 45.3

Could you report Tm for every entry in the following list?
1. GCGTGCTCACGC ((((....))))
2. GATCTGTGACCAGATC ((((((....))))))
3. GACGGCGAAAGCCAGTC ((((((....))).)))

[58.6, 47.8, 60.2]

----------
# method summary: folding enthalpy; higher = less favourable; fluorescence melt of hairpins on a sequencing array, two-state fit
# condition label: sodium 0.088 M
Note to self: values exactly at -30 kcal/mol are satisfied. So folding enthalpy at or above -30 kcal/mol is satisfied, below is not satisfied.

For orientation, consider the following solved cases.
GCGGGTACGAAAGTACGC (((..(((....))))))
satisfied
GTATGTGCGAAAGCATAC (((..(((....))))))
satisfied
GGCCACGGAAACATGGCC (((((.(....).)))))
not satisfied
GTCGCCGAAAGGCTTGAC ((((((....)))..)))
satisfied

Please indicate if the recorded folding enthalpy for GGTCAGGGAAACTTGGCC ((.((.(....).)).)) meets or exceeds -30 kcal/mol. satisfied

Please indicate if the recorded folding enthalpy for GATCTTAGTTAAGATC ((((((....)))))) meets or exceeds -30 kcal/mol. not satisfied

Please indicate if the recorded folding enthalpy for GGCACGCCGAAAGGCGCC (((..(((....)))))) meets or exceeds -30 kcal/mol. satisfied

Please indicate if the recorded folding enthalpy for GAGATCGAAAGATCTC ((((((....)))))) meets or exceeds -30 kcal/mol. not satisfied

Please indicate if the recorded folding enthalpy for GATCTTGCTTAAGATC ((((((....)))))) meets or exceeds -30 kcal/mol. not satisfied

----------
# method summary: folding enthalpy; higher = less favourable; fluorescence melt of hairpins on a sequencing array, two-state fit
# condition label: sodium 0.088 M
Answer each item with its documented folding enthalpy.
# answer = value followed by unit

Sample answers from the record:
GTTAGGCCGAAAGGCAAC (((..(((....))))))
-39 kJ/mol
GTCGCTGGAAACAGCAAC ((.((((....)))).))
-62.9 kJ/mol
GATGCAGGAAACTGCACC (.(((((....))))).)
-53.1 kJ/mol
GAGTGCGAAAGCAGCTC ((((((....))).)))
-83.2 kJ/mol
GCGGCCGGAAACAGCCGC (((((.(....).)))))
-95.8 kJ/mol

Could you report folding enthalpy for every entry in the following list?
1. GCACTCGAAAGAGATTGC ((((((....)))..)))
2. GACGGAGCGAAAGCTGTC (((..(((....))))))
3. GATCCTCCTCAGGATC ((((((....))))))
4. GCGAGTTGTCGC ((((....))))

["-63.5 kJ/mol", "-78.9 kJ/mol", "-189 kJ/mol", "-64.7 kJ/mol"]

Query: folding enthalpy; subject: GACGGTGGAAACACTGTC (((.(((....))).))) -192 kJ/mol

----------
# method summary: folding enthalpy; higher = less favourable; fluorescence melt of hairpins on a sequencing array, two-state fit
# condition label: sodium 0.088 M
Bucketed by reported folding enthalpy, buckets being low band (below -30 kcal/mol), middle band (-30 kcal/mol to below -20 kcal/mol), high band (-20 kcal/mol or more)

For orientation, consider the following solved cases.
GCCCCCGAAAGGGCCGGC ((((((....)))..)))
high band
GCCTTACGAAAGTATGGC (((.(((....))).)))
low band
GGCCAGGGAAACCTAGCC (((.(((....))).)))
middle band
GGCTGCGAAAGCATAGCC ((((((....)))..)))
low band
GATCAACGACTTGATC ((((((....))))))
low band

Bin? GTCAACGAAAGTTGTGAC ((((((....)))..))) high band

----------
# method summary: melting temperature; fluorescence melt of hairpins on a sequencing array, two-state fit, raised by 9.35 °C to match UV melts
# condition label: sodium 0.088 M
Note to self: values exactly at 50 °C are 1 (yes). So Tm at or above 50 °C is 1 (yes), below is 0 (no).

For orientation, consider the following solved cases.
GCATGTCGAAAGACGTGC (((.(((....))).)))
1 (yes)
GCTGCGCGAAAGCGAGC (((.(((....))))))
1 (yes)
GAATTAGGAAACTAGTTC (((.(((....))).)))
0 (no)

Please indicate if the recorded Tm for GAAGTCCGAAAGGATTC (((.(((....)))))) meets or exceeds 50 °C. 0 (no)

----------
# method summary: melting temperature; fluorescence melt of hairpins on a sequencing array, two-state fit, raised by 9.35 °C to match UV melts
# condition label: sodium 0.088 M
outcome measure: Tm (°C)
One number for each entry, in °C.

GCGGAGCGAAAGCACTGC ((.(.((....)).).))
50
GATCATGTCATGATC ((((((...))))))
51.3
GGCAGCGAAAGCTGTGCC ((((((....)))..)))
51

Query: Tm; subject: GATCAAGTATTTGATC ((((((....)))))) 50.3

----------
# method summary: folding enthalpy; higher = less favourable; fluorescence melt of hairpins on a sequencing array, two-state fit
# condition label: sodium 0.088 M
Note to self: values exactly at -30 kcal/mol are y. So folding enthalpy at or above -30 kcal/mol is y, below is n.

For orientation, consider the following solved cases.
GATCAAATAATTGATC ((((((....))))))
y
GACTCTGGAAACAGAGCC (.(((((....))))).)
y
GAAAGGGGAAACCCTTCC (.(((((....))))).)
y
GATCTATGTCTAGATC ((((((....))))))
y

Please indicate if the recorded folding enthalpy for GCAATGCGAAAGCCTTGC ((((.((....)).)))) meets or exceeds -30 kcal/mol. y

Please indicate if the recorded folding enthalpy for GGTGGTGGAAACGCCATC (.(((.(....).))).) meets or exceeds -30 kcal/mol. y

Please indicate if the recorded folding enthalpy for GCTATCGAAAGATAGAGC ((((((....)))..))) meets or exceeds -30 kcal/mol. y

Please indicate if the recorded folding enthalpy for GATCTTCCACAAGATC ((((((....)))))) meets or exceeds -30 kcal/mol. n

Please indicate if the recorded folding enthalpy for GCGTTCCAACGC ((((....)))) meets or exceeds -30 kcal/mol. y

Please indicate if the recorded folding enthalpy for GTCAACGAAAGTTTTGAC ((((((....)))..))) meets or exceeds -30 kcal/mol. y

Please indicate if the recorded folding enthalpy for GATCCTGGAAACAGGACC (.(((((....))))).) meets or exceeds -30 kcal/mol. y

Please indicate if the recorded folding enthalpy for GTTGGCGAAAGCCATAAC ((((((....)))..))) meets or exceeds -30 kcal/mol. y

Please indicate if the recorded folding enthalpy for GTACCGGGAAACCGACAC ((..(((....)))..)) meets or exceeds -30 kcal/mol. y

----------
# method summary: melting temperature; fluorescence melt of hairpins on a sequencing array, two-state fit, raised by 9.35 °C to match UV melts
# condition label: sodium 0.088 M
Note to self: values exactly at 50 °C are condition met. So Tm at or above 50 °C is condition met, below is condition not met.

GAGCGTGGAAACACACCC (.(.(((....))).).)
condition not met
GCCTTCCGAAAGGATGGC (((.(((....))).)))
condition met
GATCAACGCATTGATC ((((((....))))))
condition not met
GAGAGGCGAAAGCCACTC (((.(((....))).)))
condition met
GCGCAGGGAAACCCGCGC ((((.((....)).))))
condition met

Please indicate if the recorded Tm for CGGTCACGGAAACGTCCG (((..(((....)))))) meets or exceeds 50 °C. condition not met

Please indicate if the recorded Tm for GGCTACGGAAACATAGCC (((((.(....).))))) meets or exceeds 50 °C. condition not met

Please indicate if the recorded Tm for GACCCGGGAAACCAGGCC (.((.((....)).)).) meets or exceeds 50 °C. condition not met

Please indicate if the recorded Tm for GATCATGGAAACATGATC (((((((....))))))) meets or exceeds 50 °C. condition met

Please indicate if the recorded Tm for GCAAGGCGAAAGCCGAGC ((..(((....)))..)) meets or exceeds 50 °C. condition met

Please indicate if the recorded Tm for GGGTTGGGAAACCAACCC (((((((....))))))) meets or exceeds 50 °C. condition met

Please indicate if the recorded Tm for GATCACTATCGTGATC ((((((....)))))) meets or exceeds 50 °C. condition met

Please indicate if the recorded Tm for GATCGGGCTCCCGATC ((((((....)))))) meets or exceeds 50 °C. condition met

Please indicate if the recorded Tm for GGTGATGGAAACATTGCC ((..(((....)))..)) meets or exceeds 50 °C. condition not met

Please indicate if the recorded Tm for GGGTTGGAAACAACCC ((((((....)))))) meets or exceeds 50 °C. condition met

Please indicate if the recorded Tm for GTGAAACGAAAGTTCCAC (((.(((....))).))) meets or exceeds 50 °C. condition not met
